Reference source: PubChem BioAssay (NCI)

Tested on: 786-0 renal
PROTOCOL_SUMMARY: NCI tumour cell line growth inhibition, 48 h
TEST_READOUT: TGI (µM)
Please reply with the bare figure in µM and do not write the unit itself.

[ask] Entry CSC(=S)N(C)NC(=O)c1cccc(C(=O)NN(C)C(=S)SC)n1 : reported TGI = ?
[reply] 91.8

[ask] Look up TGI for this compound: CCC[CH2][Sn]1([CH2]CCC)[O]C(=O)C[S]1
[reply] 2.83

[ask] Fill in: TGI of CC1(C)Oc2ccc(Cl)cc2C12CC2 is ___
[reply] 31.3

[ask] Reported TGI, compound C=C1c2nc3ccccc3n2C=C(c2ccc(Cl)cc2)N1c1ccccc1 : ____
[reply] 26

[ask] Query (compound): NC1=CC(=O)C(=O)c2cccnc21 ; field requested: TGI
[reply] 28

[ask] Give the measured TGI of COc1cc(C)c(C(=O)/C=C/c2cc(OC)c(O)c(OC)c2)cc1O .
[reply] 39.7

[ask] Given CC[C@](O)(C(=O)O)c1cc2n(c(=O)c1CO)Cc1cc3ccccc3nc1-2 , state its recorded TGI.
[reply] 0.0525

[ask] // returns reported TGI for input COc1ccc(-c2nnc3n(C)c(=O)c4ccccc4n23)cc1O
[reply] 28

[ask] So what's the measured TGI for this one? C[C@H](CC[C@@H](O)C(C)(C)O)[C@H]1CC[C@@]2(C)[C@@H]3CC=C4[C@@H](CC[C@H](OC5OC(CO)C(O)C(O)C5O)C4(C)C)[C@]3(C)C(=O)C[C@]12C (stereo not given in full)
[reply] 70.5
